# System: Klebsiella aerogenes
# EXPERIMENT: Antimicrobial activity against Enterobacter aerogenes Ea2 expressing TEM-3 gene
# Assay type: functional
ATTRIBUTE MEASURED: MIC (µg/mL)
Hi! Could you send only the number? It should be in µg/mL, unit omitted.

Known results for molecules:
For the record C[C@@H](O)[C@H]1C(=O)N2C(C(=O)O)=C(SCCNC=N)C[C@H]12 [IMIPENEM ANHYDROUS] , what value of MIC is listed for Klebsiella aerogenes?
0.5

For the record CO[C@@]1(NC(=O)Cc2cccs2)C(=O)N2C(C(=O)O)=C(COC(N)=O)CS[C@@H]21 , what value of MIC is listed for Klebsiella aerogenes?
32

For the record CC(C)(O/N=C(\C(=O)N[C@@H]1C(=O)N2C(C(=O)[O-])=C(C[n+]3ccccc3)CS[C@H]12)c1csc(N)n1)C(=O)O , what value of MIC is listed for Klebsiella aerogenes?
16

For the record C[C@@H](O)[C@H]1C(=O)N2C(C(=O)O)=C(S[C@@H]3CN[C@H](C(=O)Nc4cccc(C(=O)O)c4)C3)[C@H](C)[C@H]12 , what value of MIC is listed for Klebsiella aerogenes?
0.02

---
For the record CO/N=C(\C(=O)N[C@@H]1C(=O)N2C(C(=O)O)=C(COC(C)=O)CS[C@H]12)c1csc(N)n1 , what value of MIC is listed for Klebsiella aerogenes?
0.2
